# study-system: UniProtKB P11229
# protocol-summary: mAChR M1 cell-based functional assay (calcium mobilization, potentiation of EC20 acetylcholine response)
# condition-info: positive allosteric modulation of EC20 ACh response, mAChR M1 CHO-K1 cells; <5 estimated where no plateau
assay-readout: pEC50
Lab note: write the figure by itself, no unit.

Some entries whose results are on file:
{"structure-smiles-string": "Cn1cc2c(-c3cccc(CN4Cc5ncccc5C4=O)c3F)cccc2n1", "study-system": "UniProtKB P11229", "pEC50": 5.14}
{"structure-smiles-string": "Cn1cc(-c2ccc(CN3Cc4ccccc4C3=O)c(C(F)(F)F)c2)cn1", "study-system": "UniProtKB P11229", "pEC50": 5.42}
{"structure-smiles-string": "Cn1cc2c(-c3cc(F)c(CN4Cc5ncccc5C4=O)c(F)c3)cccc2n1", "study-system": "UniProtKB P11229", "pEC50": 6.80}

Lab book: pEC50 of Cc1n[nH]c2cc(-c3cc(F)c(CN4Cc5ncccc5C4=O)c(F)c3)ccc12 noted as 6.68

====

pEC50 for assorted molecules
# study-system: mAChR M1 (UniProt P11229)
# protocol-summary: mAChR M1 cell-based functional assay (calcium mobilization, potentiation of EC20 acetylcholine response)
# condition-info: positive allosteric modulation of EC20 ACh response, mAChR M1 CHO-K1 cells; <5 estimated where no plateau
# Procedure: Chinese hamster ovary (CHO-K1) cells stably expressing rat (r)M1 were purchased from the American Type Culture Collection and cultured according to their indicated protocol. […] Calcium flux was measured using the Functional Drug Screening System (FDSS) 6000 (Hamamatsu Corporation, Tokyo, Japan) as an increase in the fluorescent static ratio. […] Agonist activity was analyzed as a concentration-dependent increase in calcium mobilization upon compound addition. […]

{"molecule": "CN(C)c1ccc(-c2ccc(CN3Cc4cccnc4C3=O)c(F)c2)cn1 [Example B78]", "study-system": "mAChR M1 (UniProt P11229)", "pEC50": 5.90}
{"molecule": "CN(C)c1ccc(-c2ccc(CN3Cc4ncccc4C3=O)c(F)c2)cc1 [Example B52]", "study-system": "mAChR M1 (UniProt P11229)", "pEC50": "<5.00"}
{"molecule": "O=C1c2cccnc2CN1Cc1ccc(-c2ccnc3ccccc23)cc1F [Example B45]", "study-system": "mAChR M1 (UniProt P11229)", "pEC50": 5.43}
{"molecule": "Cn1cnc2ccc(-c3ccc(CN4Cc5ncccc5C4=O)c(F)c3)cc21 [Example B54]", "study-system": "mAChR M1 (UniProt P11229)", "pEC50": 6.13}
{"molecule": "CC(c1ccc(-c2cnn(C)c2)cc1F)N1Cc2ccccc2C1=O (stereo not drawn) [Example B13]", "study-system": "mAChR M1 (UniProt P11229)", "pEC50": "<5.00"}

Given item Cn1cc(-c2ccc(CN3Cc4ccccc4S3(=O)=O)c(F)c2)cn1 [Example B23] , the value recorded as its pEC50 is <5.00

The reported value for Cn1ncc2cc(-c3ccc(CN4Cc5cccnc5C4=O)c(F)c3)ccc21 [Example B61] in terms of pEC50 is <5.00

Just so you know, measured pEC50 for O=C1c2ncccc2CN1Cc1ccc(-c2ccncc2)cc1Cl [Example B68] came out at <5.00

Record summary for Cc1nc(-c2ccc(CN3Cc4ccccc4S3(=O)=O)cc2)no1 [Example B119] : reported pEC50 = <5.00
